Reference for the values: patent US10597388B2

Tested on: blackgrass (Alopecurus myosuroides)
METHOD: Test D controlled growth environment herbicide test, pre- and postemergence
Assay type: in vivo
RUN PARAMETERS: Preemergence, 31 g ai/ha
QUANTITY NAME: Plant response rating (scale of 0 to 100), Blackgrass
Lab note: write the figure by itself, no unit.

Field: example entries. Status: answers known.
CCOC(=O)Oc1c(C)nn(C)c(=O)c1-c1c(C)sc2ccc(C)cc12: 70
COC(=O)Oc1c(C)nn(C)c(=O)c1-c1c(C)sc2c(C)cc(C)cc12: 55
CC(=O)Oc1c(Br)nn(C)c(=O)c1-c1c(C)ccc2ccccc12: 10
CC(=O)Oc1c(C)nn(C)c(=O)c1-c1ccc(F)c2ccccc12: 25
CCC(=O)Oc1c(C)nn(C)c(=O)c1-c1c(C)sc2ccc(Cl)cc12: 25

Record summary for Cc1ccc(-c2c(O)c(Br)nn(C)c2=O)c2ccccc12 : reported Plant response rating (scale of 0 to 100), Blackgrass = 20

* * *

System: chickweed (common chickweed, Stellaria media)
METHOD: Test C greenhouse herbicide test, postemergence
Assay type: in vivo
RUN PARAMETERS: postemergence, 62 g ai/ha; scale 0 to 100, 0 no effect, 100 complete control
Text: At the same time, plants selected from these crop and weed species and also chickweed (common chickweed, Stellaria media), kochia (Kochia scoparia), and oat, wild (wild oat, Avena fatua), were planted in pots containing Redi-Earth® planting medium (Scotts Company, 14111 Scottslawn Road, Marysville, Ohio 43041) comprising spaghnum peat moss, vermiculite, wetting agent and starter nutrients and treated with postemergence applications of test chemicals formulated in the same manner. […]
Item-by-item account of Chickweed plant response rating
Lab note: write the figure by itself, no unit.

CC(=O)Oc1c(C)nn(C)c(=O)c1-c1c(C)sc2ccc(C)cc12: 98
CC(=O)Oc1c(C)nn(C)c(=O)c1-c1ccc(F)c2ccccc12: 90
COc1ccc2ccccc2c1-c1c(O)c(C)nn(C)c1=O: 60
CCC(=O)Oc1c(C)nn(C)c(=O)c1-c1c(C)sc2c(C)cc(C)cc12: 95
Cc1ccc2ccccc2c1-c1c(O)cnn(C)c1=O: 10

Record summary for Cc1ccc2sc(C)c(-c3c(O)c(C)nn(C)c3=O)c2c1 : reported Chickweed plant response rating = 95

Record summary for COc1nn(C)c(=O)c(-c2c(C)ccc3ccccc23)c1O : reported Chickweed plant response rating = 95

Record summary for CC(=O)Oc1c(C#N)nn(C)c(=O)c1-c1c(C)ccc2ccccc12 : reported Chickweed plant response rating = 100

Record summary for Cc1cc(C)c2sc(C)c(-c3c(OC(=O)OCCCl)c(C)nn(C)c3=O)c2c1 : reported Chickweed plant response rating = 95

Record summary for CCOC(=O)Oc1c(C)nn(C)c(=O)c1-c1c(CC)ccc2ccccc12 : reported Chickweed plant response rating = 90

Record summary for CCOC(=O)Oc1c(C)nn(C)c(=O)c1-c1c(C)sc2c(C)cc(C)cc12 : reported Chickweed plant response rating = 95

Record summary for Cc1cc(C)c2ccccc2c1-c1c(O)cnn(C)c1=O : reported Chickweed plant response rating = 55

Record summary for Cc1sc2ccc(Cl)cc2c1-c1c(OS(C)(=O)=O)c(Cl)nn(C)c1=O : reported Chickweed plant response rating = 95

* * *

Tested on: foxtail, giant (giant foxtail, Setaria faberii)
METHOD: Test A greenhouse herbicide test, pre- and postemergence
Type: in vivo
RUN PARAMETERS: Postemergence, 125 g ai/ha; 0 to 100 scale, 0 no effect, 100 complete control
Excerpt: […]
QUANTITY NAME: Plant response rating, Foxtail, Giant
Lab note: write the figure by itself, no unit.

Field: example entries. Status: answers known.
Cc1cc(C)c2ccccc2c1-c1c(OS(C)(=O)=O)c(C)nn(C)c1=O: 90
Cc1nn(C)c(=O)c(-c2c(C)sc3ccccc23)c1OC(=O)N1CCOCC1: 0
CC(=O)Oc1c(C)nn(C)c(=O)c1-c1c([N+](=O)[O-])ccc2ccccc12: 20

Shifting focus to the compound that follows.
Record summary for Cc1cc(C)c2sc(C)c(-c3c(OCC#N)c(C)nn(C)c3=O)c2c1 : reported Plant response rating, Foxtail, Giant = 20

* * *

System: crabgrass, large (large crabgrass, Digitaria sanguinalis)
METHOD: Test C greenhouse herbicide test, pre- and postemergence
Assay type: in vivo
RUN PARAMETERS: Postemergence, 250 g ai/ha; scale 0 to 100, 0 no effect, 100 complete control; 13 to 15 d
Item-by-item account of Plant response rating, Crabgrass, Large
Lab note: write the figure by itself, no unit.

Field: example entries. Status: answers known.
CCOC(=O)Oc1c(C)nn(C)c(=O)c1-c1c(CC)ccc2ccccc12 [Compound 37]: 35
Cc1ccc(-c2c(O)c(Br)nn(C)c2=O)c2ccccc12 [Compound 52]: 10
Cc1nn(C)c(=O)c(-c2cccc3ccc(C#N)cc23)c1O [Compound 127]: 25
CC(=O)Oc1c(C)nn(C)c(=O)c1-c1c(C)oc2ccc(C)cc12 [Compound 14]: 35

Shifting focus to the molecule that follows.
Record summary for Cc1ccc2sc(C)c(-c3c(O)c(C)nn(C)c3=O)c2c1 [Compound 1] : reported Plant response rating, Crabgrass, Large = 35

* * *

Item-by-item account of Plant response rating, Pigweed
Test system: pigweed (Amaranthus retroflexus)
METHOD: Test C greenhouse herbicide test, pre- and postemergence
Type: in vivo
RUN PARAMETERS: Postemergence, 250 g ai/ha; scale 0 to 100, 0 no effect, 100 complete control; 13 to 15 d
Lab note: write the figure by itself, no unit.

Field: example entries. Status: answers known.
CC(=O)Oc1c(Br)nn(C)c(=O)c1-c1c(C)ccc2ccccc12 [Compound 129]: 98
CCOC(=O)Oc1c(C)nn(C)c(=O)c1-c1c(C)sc2ccc(C)cc12 [Compound 82]: 90
COc1nn(C)c(=O)c(-c2c(C)sc3ccc(Cl)cc23)c1O [Compound 100]: 100

The reported pigweed (Amaranthus retroflexus) Plant response rating, Pigweed of Cc1nn(C)c(=O)c(-c2c(C)sc3ccccc23)c1O [Compound 65] is 100

The reported pigweed (Amaranthus retroflexus) Plant response rating, Pigweed of Cc1nn(C)c(=O)c(-c2ccc(F)c3ccccc23)c1OC(=O)CC(F)(F)F [Compound 123] is 98

* * *

Tested on: ryegrass, Italian (Italian ryegrass, Lolium multiflorum)
METHOD: Test D controlled growth environment herbicide test, pre- and postemergence
Assay type: in vivo
RUN PARAMETERS: Preemergence, 31 g ai/ha
QUANTITY NAME: Plant response rating (scale of 0 to 100), Ryegrass, Italian
Lab note: write the figure by itself, no unit.

The reported ryegrass, Italian (Italian ryegrass, Lolium multiflorum) Plant response rating (scale of 0 to 100), Ryegrass, Italian of CC(=O)Oc1c(C)nn(C)c(=O)c1-c1c(C)cc(C)c2ccccc12 is 100

* * *

Test system: crabgrass, large (large crabgrass, Digitaria sanguinalis)
METHOD: Test C greenhouse herbicide test, pre- and postemergence
Type: in vivo
RUN PARAMETERS: Preemergence, 31 g ai/ha; scale 0 to 100, 0 is no effect, 100 is complete control
QUANTITY NAME: Plant response rating, Crabgrass, Large
Lab note: write the figure by itself, no unit.

Field: example entries. Status: answers known.
CCOC(=O)Oc1c(C)nn(C)c(=O)c1-c1c(C)sc2ccc(C)cc12: 25
CCC(=O)Oc1c(Cl)nn(C)c(=O)c1-c1c(C)sc2ccc(Cl)cc12: 5
CCOC(=O)Oc1c(C)nn(C)c(=O)c1-c1c(CC)ccc2ccccc12: 5
CCOC(=O)Oc1c(C)nn(C)c(=O)c1-c1c(C)ccc2ccccc12: 0
Cc1ccc2ccc(C)c(-c3c(O)c(C)nn(C)c3=O)c2c1: 20
Cc1ccc2sc(C)c(-c3c(O)c(C)nn(C)c3=O)c2c1: 35
CCOC(=O)Oc1c(C)nn(C)c(=O)c1-c1c(C)sc2c(C)cc(C)cc12: 75
CCC(=O)Oc1c(C)nn(C)c(=O)c1-c1c(C)sc2ccc(Cl)cc12: 40

The reported crabgrass, large (large crabgrass, Digitaria sanguinalis) Plant response rating, Crabgrass, Large of CCC(=O)Oc1c(C)nn(C)c(=O)c1-c1c(C)sc2ccc(C)cc12 is 55

The reported crabgrass, large (large crabgrass, Digitaria sanguinalis) Plant response rating, Crabgrass, Large of CCCC(=O)Oc1c(C)nn(C)c(=O)c1-c1c(C)sc2c(C)cc(C)cc12 is 70

* * *

Test system: canarygrass (Phalaris minor)
METHOD: Test D controlled growth environment herbicide test, pre- and postemergence
Format: in vivo
RUN PARAMETERS: Preemergence, 250 g ai/ha; scale 0 to 100 (0 no effect, 100 complete control)
QUANTITY NAME: Plant response rating, Canarygrass
Lab note: write the figure by itself, no unit.

Cc1ccc2ccccc2c1-c1c(O)c(C)nn(C)c1=O [Compound 59]: 100
CC(=O)Oc1c(Br)nn(C)c(=O)c1-c1c(C)ccc2ccccc12 [Compound 129]: 90
CC(=O)Oc1c(C)nn(C)c(=O)c1-c1c(C)sc2c(C)cc(C)cc12 [Compound 27]: 100
Cc1cc(C)c2sc(C)c(-c3c(OC(=O)OCCCl)c(C)nn(C)c3=O)c2c1 [Compound 85]: 95
Cc1nn(C)c(=O)c(-c2c(C)sc3ccc(Cl)cc23)c1O [Compound 104]: 100

Record summary for Cc1ccc(-c2c(O)c(Br)nn(C)c2=O)c2ccccc12 [Compound 52] : reported Plant response rating, Canarygrass = 35
